Experiment: Photostability of the compound in DMSO/PBS solution assessed as decrease in fluorescence intensity at 466 nm excitation with Hamamatsu LC8 lightning cure (300 W) light for 2 hrs by fluorescence based analysis relative to initial value
Type: physicochemical
Design: dose or concentration left out as unconfirmed
Settings: read-out: Activity
measured.parameter: degraded at 2 h

chemical.string	reported.value
Cc1ncsc1-c1ccc([C@H](C)NC(=O)[C@@H]2C[C@@H](O)CN2C(=O)[C@@H](NC(=O)CCCCCCCCCOc2cc(O)ccc2/C=C/C2=CC(=C(C#N)C#N)c3cc(O)ccc3O2)C(C)(C)C)cc1	< 5%

* * *

# RBA per entry
Target: Estrogen receptor beta (Homo sapiens) (UniProt Q92731)
Sequence (Q92731 whole entry): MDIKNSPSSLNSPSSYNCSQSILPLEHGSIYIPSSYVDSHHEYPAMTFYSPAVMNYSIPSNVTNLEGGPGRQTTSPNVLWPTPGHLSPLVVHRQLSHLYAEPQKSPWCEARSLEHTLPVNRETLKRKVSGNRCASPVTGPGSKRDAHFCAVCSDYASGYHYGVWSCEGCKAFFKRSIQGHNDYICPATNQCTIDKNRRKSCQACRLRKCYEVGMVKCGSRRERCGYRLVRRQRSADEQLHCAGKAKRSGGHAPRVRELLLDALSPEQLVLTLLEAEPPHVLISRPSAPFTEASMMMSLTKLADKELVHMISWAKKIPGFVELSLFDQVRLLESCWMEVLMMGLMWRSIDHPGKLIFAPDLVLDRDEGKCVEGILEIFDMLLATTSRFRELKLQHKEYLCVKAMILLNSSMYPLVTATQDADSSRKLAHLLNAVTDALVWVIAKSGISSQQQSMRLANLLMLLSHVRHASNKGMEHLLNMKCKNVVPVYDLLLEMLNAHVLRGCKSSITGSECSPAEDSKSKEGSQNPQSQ
Assay: Binding affinity to ERbeta (unknown origin) assessed as relative binding affinity incubated for 2 hrs in presence of coumestrol by fluorescence polarization based competitive binding assay relative to estradiol

chemical.string	RBA / %
Cc1ncsc1-c1ccc([C@H](C)NC(=O)[C@@H]2C[C@@H](O)CN2C(=O)[C@@H](NC(=O)CCCCCCCCCOc2cc(O)ccc2/C=C/C2=CC(=C(C#N)C#N)c3cc(O)ccc3O2)C(C)(C)C)cc1	3.94
Cc1ncsc1-c1ccc([C@H](C)NC(=O)[C@@H]2C[C@@H](O)CN2C(=O)[C@@H](NC(=O)CCCCCCCOc2cc(O)ccc2/C=C/C2=CC(=C(C#N)C#N)c3cc(O)ccc3O2)C(C)(C)C)cc1	0.65
Cc1ncsc1-c1ccc([C@H](C)NC(=O)[C@@H]2C[C@@H](O)CN2C(=O)[C@@H](NC(=O)CCCCCCCCCCCOc2cc(O)ccc2/C=C/C2=CC(=C(C#N)C#N)c3cc(O)ccc3O2)C(C)(C)C)cc1	1.4
Cc1ncsc1-c1ccc([C@H](C)NC(=O)[C@@H]2C[C@@H](O)CN2C(=O)[C@@H](NC(=O)CCCCCOc2cc(O)ccc2/C=C/C2=CC(=C(C#N)C#N)c3cc(O)ccc3O2)C(C)(C)C)cc1	2.48

* * *

Biological target: Estrogen receptor (Homo sapiens)
Sequence (whole entry): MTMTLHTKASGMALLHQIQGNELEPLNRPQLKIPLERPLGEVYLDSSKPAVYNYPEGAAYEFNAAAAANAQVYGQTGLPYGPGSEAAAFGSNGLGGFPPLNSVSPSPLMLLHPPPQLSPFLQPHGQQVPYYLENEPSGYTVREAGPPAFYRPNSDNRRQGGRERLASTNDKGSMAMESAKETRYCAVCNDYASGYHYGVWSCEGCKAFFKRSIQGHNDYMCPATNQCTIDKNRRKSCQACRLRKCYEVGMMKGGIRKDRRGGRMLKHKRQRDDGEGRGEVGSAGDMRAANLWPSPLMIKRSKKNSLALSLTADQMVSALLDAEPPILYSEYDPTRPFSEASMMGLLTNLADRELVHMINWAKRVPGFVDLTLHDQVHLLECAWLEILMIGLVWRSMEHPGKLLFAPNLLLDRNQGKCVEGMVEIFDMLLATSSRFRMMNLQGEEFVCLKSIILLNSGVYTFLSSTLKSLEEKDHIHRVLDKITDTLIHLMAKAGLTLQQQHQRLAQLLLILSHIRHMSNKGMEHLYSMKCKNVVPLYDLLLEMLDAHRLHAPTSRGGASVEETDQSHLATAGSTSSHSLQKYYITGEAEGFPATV
Experiment: Binding affinity to ERalpha (unknown origin) assessed as relative binding affinity incubated for 2 hrs in presence of coumestrol by fluorescence polarization based competitive binding assay relative to estradiol
# RBA per entry

chemical.string	reading.unit	RBA
Cc1ncsc1-c1ccc([C@H](C)NC(=O)[C@@H]2C[C@@H](O)CN2C(=O)[C@@H](NC(=O)CCCCCOc2cc(O)ccc2/C=C/C2=CC(=C(C#N)C#N)c3cc(O)ccc3O2)C(C)(C)C)cc1	%	3.69
Cc1ncsc1-c1ccc([C@H](C)NC(=O)[C@@H]2C[C@@H](O)CN2C(=O)[C@@H](NC(=O)CCCCCCCCCOc2cc(O)ccc2/C=C/C2=CC(=C(C#N)C#N)c3cc(O)ccc3O2)C(C)(C)C)cc1	%	7.99
Cc1ncsc1-c1ccc([C@H](C)NC(=O)[C@@H]2C[C@@H](O)CN2C(=O)[C@@H](NC(=O)CCCCCCCCCCCOc2cc(O)ccc2/C=C/C2=CC(=C(C#N)C#N)c3cc(O)ccc3O2)C(C)(C)C)cc1	%	2.11
Cc1ncsc1-c1ccc([C@H](C)NC(=O)[C@@H]2C[C@@H](O)CN2C(=O)[C@@H](NC(=O)CCCCCCCOc2cc(O)ccc2/C=C/C2=CC(=C(C#N)C#N)c3cc(O)ccc3O2)C(C)(C)C)cc1	%	2.48

Attribution: ChEMBL document CHEMBL6083176
